Values from PubChem BioAssay (NCATS)

System: CP256
test-details: qHTS profiling for inhibitors of Plasmodium falciparum proliferation (AID 504749); further: nearly all actives have a fitted effect of over 60% in size
protocol-conditions: P. falciparum in erythrocytes, SYBR Green DNA, 72 h; series mostly up to 28.7 µM
Records with an inconclusive call do not appear. Activity calls are given as the source filed them. The call rests on the fitted dose curve; in most records, active means well fitted inhibition curve with a large enough effect; inconclusive means small, poorly fitted or top-dose-only effect; inactive means flat fitted curve, though single readings scatter. Peptide text beside a SMILES is read from it.
Outcome codes: YES for active, NO for inactive

[
  {
    "compound": "CC(=O)N[C@@H](CC(=O)O)C(=O)N[C@@H](CCC(=O)O)C(=O)O (Ac-Asp-Glu-OH)",
    "class-assignment": "NO"
  },
  {
    "compound": "C[C@@H]1CCC2[C@@H](C)[C@@H](O)O[C@@H]3O[C@@]4(C)CC[C@@H]1[C@@]23OO4 (some centres undefined)",
    "class-assignment": "YES"
  },
  {
    "compound": "CC(Cc1ccc(O)c(O)c1)C(C)Cc1ccc(O)c(O)c1 (centres undefined)",
    "class-assignment": "NO"
  },
  {
    "compound": "CCCCCC(CC)COC(=O)CC(C(=O)OCC(CC)CCCC)S(=O)(=O)O (centres undefined)",
    "class-assignment": "NO"
  },
  {
    "compound": "CCOC(C)=O",
    "class-assignment": "NO"
  },
  {
    "compound": "CCCC(=O)O[C@]1(C(=O)CCl)[C@H](C)C[C@@H]2[C@H]3CCC4=CC(=O)C=C[C@]4(C)[C@@]3(F)C(=O)C[C@@]21C",
    "class-assignment": "YES"
  },
  {
    "compound": "O=C(COc1ccc(Cl)cc1)OCCNC12CC3CC(CC(C3)C1)C2",
    "class-assignment": "NO"
  },
  {
    "compound": "COc1ccc2c3c1O[C@H]1C[C@@H](O)C=C[C@@]31CCN(C)C2",
    "class-assignment": "NO"
  },
  {
    "compound": "CCN(CC)CCOc1ccc(-c2nc3cc(Cl)ccc3s2)cc1",
    "class-assignment": "NO"
  }
]
